- PROTOCOL NOTES: in vitro
- EXPERIMENTAL CONTEXT: mouse, plasma
- Description: Protein binding in mouse plasma assessed as unbound fraction
OBSERVED PROPERTY: fraction unbound
Answers are plain numbers.

INPUT: State its fraction unbound: `O=C1CCc2cc(N3CC[C@](O)(C(=O)NCc4cc(F)cc(Cl)c4)C3=O)ccc2N1`
OUTPUT: 0.017

* * *

- PROTOCOL NOTES: physchem
- EXPERIMENTAL CONTEXT: PBS buffer
- Description: Solubility of compound in PBS buffer
OBSERVED PROPERTY: solubility (µg/mL)
One number for each entry, in µg/mL.

INPUT: State its solubility: `O=C1CCc2cc(N3CC[C@](O)(C(=O)NCc4cc(F)cc(Cl)c4)C3=O)ccc2N1`
OUTPUT: 90

Data origin, for the record: ChEMBL document CHEMBL4414652
